These measurements were taken from BindingDB's records for doi:10.1002/cbic.201600598.

As a worked illustration, we turn to IC50 data collected for Carbonic anhydrase 2 (Homo sapiens, UniProt P00918).
Enter your answer as a number in nM; do not include the unit.

Example results:
| recordSmiles | IC50, nM |
| --- | --- |
| C#CCOCCOCCOCCOCCOCCC(=O)Nc1ccc(C(=O)c2ccc(NC(=O)CCCC(=O)Nc3cccc(S(N)(=O)=O)c3)cc2)cc1 | 914 |
| C#CCOCCOCCOCCOCCOCCC(=O)Nc1ccc(C(=O)c2ccc(NC(=O)CCNC(=O)c3ccc(S(N)(=O)=O)cc3)cc2)cc1 | 216 |
| C#CCOCCOCCOCCOCCOCCC(=O)Nc1ccc(C(=O)c2ccc(NC(=O)CCCC(=O)NCc3ccc(S(N)(=O)=O)cc3)cc2)cc1 | 1220 |

Considering `C#CCOCCOCCOCCOCCOCCC(=O)Nc1ccc(C(=O)c2ccc(NC(=O)CCCC(=O)Nc3ccc(S(N)(=O)=O)cc3)cc2)cc1` , its IC50 with Carbonic anhydrase 2 (Homo sapiens, UniProt P00918) was recorded as 360

Considering `C#CCOCCOCCOCCOCCOCCC(=O)N[C@@H](Cc1cn(-c2ccc(C(=O)c3ccccc3)cc2)nn1)C(=O)Nc1ccc(S(N)(=O)=O)cc1` , its IC50 with Carbonic anhydrase 2 (Homo sapiens, UniProt P00918) was recorded as 1550

Considering `C#CCOCCOCCOCCOCCNC(=O)c1ccc(S(N)(=O)=O)cc1` , its IC50 with Carbonic anhydrase 2 (Homo sapiens, UniProt P00918) was recorded as 288

Considering `C#CCOCCOCCOCCOCCOCCC(=O)N[C@@H](Cc1cn(-c2ccc(C(=O)c3ccccc3)cc2)nn1)C(=O)Nc1cccc(S(N)(=O)=O)c1` , its IC50 with Carbonic anhydrase 2 (Homo sapiens, UniProt P00918) was recorded as 2030
